experiment: xn = mol fraction of the nth substance listed, in the solute-free solvent; settings: 288.15 K; x2 = 0.7
Classify by measured solubility (g/100 g solution): class 1 if it is equal to or exceeds 10, class 0 if it is smaller.

Example results:
compound	label value
S=c1[nH]ncs1 + CC(C)=O + O	class 1
Cc1ncc(C[n+]2csc(CCO)c2C)c(N)n1.O=[N+]([O-])[O-] + O + CC(C)O	class 0
Cc1ncc(C[n+]2csc(CCO)c2C)c(N)n1.O=[N+]([O-])[O-] + O + CC(C)=O	class 0
CCCCCOC(=O)Nc1nc(=O)n(C2OC(C)C(O)C2O)cc1F (stereo not drawn) + CCOC(C)=O + CCCCCCC	class 0
Cc1ncc(C[n+]2csc(CCO)c2C)c(N)n1.O=[N+]([O-])[O-] + O + CO	class 0
S=c1[nH]ncs1 + CCO + O	class 1

Is reported solubility (g/100 g solution) greater than or equal to 10 here: S=c1[nH]ncs1 + CCCO + O
class 1

* * *

assay: xn = mol fraction of the nth substance listed, in the solute-free solvent; conditions: 293.15 K; x2 = 0.2812
// solubility (g/100 g solution) lookup, one value per entry
Hey, just send me the number, nothing else.

Can you look up the measured solubility (g/100 g solution) of CC(C)OC(=O)C(C)NP(=O)(OCC1OC(n2ccc(=O)[nH]c2=O)C(C)(F)C1O)Oc1ccccc1 (centres undefined) + CCO + O for me?
14.9

Thanks! And Cc1[nH]c(=O)c(C#N)cc1-c1ccncc1 + CCO + O ?
0.00338

Similarly, Nc1cccc(S(=O)(=O)c2cccc(N)c2)c1 + CCO + O ?
0.706

Now consider COc1cc2c(cc1OC)-c1cc3ccc(OC)c(OC)c3c[n+]1CC2.[Cl-] + CCO + O .
2.37

* * *

assay: xn = mol fraction of the nth substance listed, in the solute-free solvent; conditions: 303.15 K; x2 = 0.6101
Entries and their solubility (g/100 g solution) values follow.
Field format: numeric only.

Sample answers from the record:
compound	outcome measure	reported result
Nc1cccc(S(=O)(=O)c2cccc(N)c2)c1 + CCO + O	solubility (g/100 g solution)	1.88
COc1cc2c(cc1OC)-c1cc3ccc(OC)c(OC)c3c[n+]1CC2.[Cl-] + CCO + O	solubility (g/100 g solution)	4.33
Cc1[nH]c(=O)c(C#N)cc1-c1ccncc1 + CCO + O	solubility (g/100 g solution)	0.00844

Shifting focus to the compound that follows.
So what's the measured solubility (g/100 g solution) for this one? CC(C)OC(=O)C(C)NP(=O)(OCC1OC(n2ccc(=O)[nH]c2=O)C(C)(F)C1O)Oc1ccccc1 (centres undefined) + CCO + O
32.3

* * *

solubility (g/100 g solution) values, listed per item
test: xn = mol fraction of the nth substance listed, in the solute-free solvent; details: 293.15 K; x2 = 0.7
Note: the reply should be a number with no unit written.

Worked cases, answers included:
compound	solubility (g/100 g solution)
S=c1[nH]ncs1 + CCCO + O	11.8
Cc1ncc(C[n+]2csc(CCO)c2C)c(N)n1.O=[N+]([O-])[O-] + O + CO	2.02
CC(N)C(=O)O (stereo unspecified) + O + CC(C)=O	0.457
OCCN(CCO)c1nc(N2CCCCC2)c2nc(N(CCO)CCO)nc(N3CCCCC3)c2n1 + CO + O	1.8
S=c1[nH]ncs1 + CCO + O	13.1

Looking for the measured solubility (g/100 g solution) of CC(N)C(=O)O (stereo unspecified) + O + CC(C)O , can you help?
1.01

Continue with Cc1ncc(C[n+]2csc(CCO)c2C)c(N)n1.O=[N+]([O-])[O-] + O + CC(C)=O
1.69

Let us now turn to S=c1[nH]ncs1 + CO + O
12

Input CCCCCOC(=O)Nc1nc(=O)n(C2OC(C)C(O)C2O)cc1F (stereo unspecified) + CCOC(C)=O + CCCCCCC
0.554

Cool, now OCCN(CCO)c1nc(N2CCCCC2)c2nc(N(CCO)CCO)nc(N3CCCCC3)c2n1 + CCO + O
5.8

* * *

experiment: xn = mol fraction of the nth substance listed, in the solute-free solvent; details: 303.15 K; x2 = 0.7297
# solubility (g/100 g solution) >= 1 gives TRUE, anything below gives FALSE

molecule	label value
Nc1nccnc1Cl + CC(C)O + O	TRUE
Cc1[nH]c(=O)c(C#N)cc1-c1ccncc1 + CC(C)O + O	FALSE
CN1CCN(C2=Nc3cc(Cl)ccc3Nc3ccccc32)CC1 + CC(C)O + O	TRUE
Nc1cccc(S(=O)(=O)c2cccc(N)c2)c1 + CC(C)O + O	TRUE
c1ccc2[nH]c(-c3cscn3)nc2c1 + CC(C)O + O	FALSE

Continue with the molecule presented below.
API: above_or_equal(metric=solubility (g/100 g solution), cutoff=1) for item c1ccc2[nH]c(-c3cscn3)nc2c1 + CCCO + O
FALSE

* * *

assay: xn = mol fraction of the nth substance listed, in the solute-free solvent; conditions: 323.15 K; x2 = 0.3103
# maps each entry to its solubility (g/100 g solution)
# answer = number (no unit)

Known solubility (g/100 g solution) results, listed for orientation:
compound	reported result
c1ccc2[nH]c(-c3cscn3)nc2c1 + CCCO + O	0.592
Nc1cccc(S(=O)(=O)c2cccc(N)c2)c1 + CC(C)O + O	2.24
Nc1nccnc1Cl + CC(C)O + O	1.57

What value of measured solubility (g/100 g solution) is listed for c1ccc2[nH]c(-c3cscn3)nc2c1 + CC(C)O + O ?
0.312

Check CN1CCN(C2=Nc3cc(Cl)ccc3Nc3ccccc32)CC1 + CC(C)O + O too.
1.63

Moving on to Cc1[nH]c(=O)c(C#N)cc1-c1ccncc1 + CC(C)O + O
0.0214

* * *

experiment: xn = mol fraction of the nth substance listed, in the solute-free solvent; conditions: 318.15 K; x2 = 0.2068
Each entry below carries its recorded solubility (g/100 g solution).
# answer = number (no unit)

compound	solubility (g/100 g solution)
CC(C)OC(=O)C(C)NP(=O)(OCC1OC(n2ccc(=O)[nH]c2=O)C(C)(F)C1O)Oc1ccccc1 (centres undefined) + CCO + O	29
Cc1[nH]c(=O)c(C#N)cc1-c1ccncc1 + CCO + O	0.00505
Nc1cccc(S(=O)(=O)c2cccc(N)c2)c1 + CCO + O	1.51

// switching to the query compound
If you can, please state the reported solubility (g/100 g solution) value of COc1cc2c(cc1OC)-c1cc3ccc(OC)c(OC)c3c[n+]1CC2.[Cl-] + CCO + O .
5.59

* * *

test: xn = mol fraction of the nth substance listed, in the solute-free solvent; settings: 288.15 K; x2 = 0.5
solubility (g/100 g solution) values by entry
Please reply with the number alone, leaving off any unit.

molecule	reported result
Cc1ncc(C[n+]2csc(CCO)c2C)c(N)n1.O=[N+]([O-])[O-] + O + CC(C)=O	0.498
Cc1ncc(C[n+]2csc(CCO)c2C)c(N)n1.O=[N+]([O-])[O-] + O + CO	1.24
S=c1[nH]ncs1 + CO + O	6.04
S=c1[nH]ncs1 + CCO + O	9.61

Value lookup for solubility (g/100 g solution); key = CCCCCOC(=O)Nc1nc(=O)n(C2OC(C)C(O)C2O)cc1F (stereo not given) + CCOC(C)=O + CCCCCCC
0.141

* * *

assay: xn = mol fraction of the nth substance listed, in the solute-free solvent; conditions: 283.15 K; x2 = 0.03225
outcome measure: solubility (g/100 g solution)
API note: the answer field is a bare number with no unit suffix.

Examples from the recorded data:
molecule	solubility (g/100 g solution)
Cc1[nH]c(=O)c(C#N)cc1-c1ccncc1 + CC(C)O + O	0.00126
Nc1cccc(S(=O)(=O)c2cccc(N)c2)c1 + CC(C)O + O	0.0588
Nc1nccnc1Cl + CC(C)O + O	0.0564

Which solubility (g/100 g solution) is listed for CN1CCN(C2=Nc3cc(Cl)ccc3Nc3ccccc32)CC1 + CC(C)O + O ?
0.00829

For c1ccc2[nH]c(-c3cscn3)nc2c1 + CCCO + O then?
0.00325

What do you have for c1ccc2[nH]c(-c3cscn3)nc2c1 + CC(C)O + O ?
0.00182

* * *

assay: xn = mol fraction of the nth substance listed, in the solute-free solvent; conditions: 313.15 K; x2 = 0.7788
outcome measure: solubility (g/100 g solution)
// no unit, no text: just the number

compound	reported result
Cc1[nH]c(=O)c(C#N)cc1-c1ccncc1 + CCO + O	0.0119

Which solubility (g/100 g solution) is reported for this compound? COc1cc2c(cc1OC)-c1cc3ccc(OC)c(OC)c3c[n+]1CC2.[Cl-] + CCO + O
6.4

Follow-up entry: Nc1cccc(S(=O)(=O)c2cccc(N)c2)c1 + CCO + O
2.81

Follow-up entry: CC(C)OC(=O)C(C)NP(=O)(OCC1OC(n2ccc(=O)[nH]c2=O)C(C)(F)C1O)Oc1ccccc1 (centres undefined) + CCO + O
47
